System: 845751-090-R-J2-PDC tumor spheroid viability
Test: Anticancer human tumor 845751-090-R-J2-PDC patient-derived head and neck squamous carcinoma cell line growth inhibition [IpAb]
Conditions: second compound 1 µM; first compound 0.0316 µM; stronger effect = lower value; spheroids with HUVEC and MSC
Please respond with Met when measured viability, T/C is strictly beneath 50%, and with Not met in all other cases.

See these solved cases before continuing.
CC(C)n1nc(-c2ccc3oc(N)nc3c2)c2c(N)ncnc21 + CC(C)NCC(C(=O)N1CCN(c2ncnc3c2C(C)CC3O)CC1)c1ccc(Cl)cc1 | Met
Cn1nccc1Nc1nccc(-c2ccn(C(CO)c3ccc(Cl)c(F)c3)c(=O)c2)n1 (configuration not stated) + CC(C)NCC(C(=O)N1CCN(c2ncnc3c2C(C)CC3O)CC1)c1ccc(Cl)cc1 | Met
C=CC(=O)N1CCN(c2nc(=O)n(-c3c(C)ccnc3C(C)C)c3nc(-c4c(O)cccc4F)c(F)cc23)C(C)C1 (configuration not stated) + CC(C)NCC(C(=O)N1CCN(c2ncnc3c2C(C)CC3O)CC1)c1ccc(Cl)cc1 | Met
CC1(C)CCC(CN2CCN(c3ccc(C(=O)NS(=O)(=O)c4ccc(NCC5CCOCC5)c([N+](=O)[O-])c4)c(Oc4cnc5[nH]ccc5c4)c3)CC2)=C(c2ccc(Cl)cc2)C1 + CC(C)NCC(C(=O)N1CCN(c2ncnc3c2C(C)CC3O)CC1)c1ccc(Cl)cc1 | Met

For this molecule, is viability, T/C lower than 50%? Cn1nccc1Nc1nccc(-c2ccn(C(CO)c3ccc(Cl)c(F)c3)c(=O)c2)n1 (configuration not stated) + CCN1CCN(Cc2ccc(Nc3ncc(F)c(-c4cc(F)c5nc(C)n(C(C)C)c5c4)n3)nc2)CC1 Not met

Let us now turn to Cc1nc(NC(=O)N2CCCC2C(N)=O)sc1-c1ccnc(C(C)(C)C(F)(F)F)c1 (configuration not stated) + CCN1CCN(Cc2ccc(Nc3ncc(F)c(-c4cc(F)c5nc(C)n(C(C)C)c5c4)n3)nc2)CC1 Not met

###

Test system: 845751-090-R-J2-PDC tumor spheroid viability
Test: Anticancer human tumor 845751-090-R-J2-PDC cell line growth inhibition [IpAb];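 further: spheroids exposed to compounds for 7 days before readout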
Details: curve of first compound; second compound 0.316 µM; spheroids with HUVEC and MSC
MEASURED_METRIC: IC50

Use the examples below as a reference point.
C=CCn1c(=O)c2cnc(Nc3ccc(N4CCN(C)CC4)cc3)nc2n1-c1cccc(C(C)(C)O)n1 + CC(C)NCC(C(=O)N1CCN(c2ncnc3c2C(C)CC3O)CC1)c1ccc(Cl)cc1 | < 31.6 nM
Cn1ncnc1[C@H]1c2n[nH]c(=O)c3cc(F)cc(c23)N[C@@H]1c1ccc(F)cc1 + CC(C)NCC(C(=O)N1CCN(c2ncnc3c2C(C)CC3O)CC1)c1ccc(Cl)cc1 | < 0.316 nM
CC(C)(C)c1cnc(CSc2cnc(NC(=O)C3CCNCC3)s2)o1 + CC(C)NCC(C(=O)N1CCN(c2ncnc3c2C(C)CC3O)CC1)c1ccc(Cl)cc1 | < 9.49 nM

I have this compound here, CC(=O)c1c(C)c2cnc(Nc3ccc(N4CCNCC4)cn3)nc2n(C2CCCC2)c1=O + CC(C)NCC(C(=O)N1CCN(c2ncnc3c2C(C)CC3O)CC1)c1ccc(Cl)cc1 , and I need its recorded IC50. < 0.949 nM

Let us now turn to Cn1ncnc1[C@H]1c2n[nH]c(=O)c3cc(F)cc(c23)N[C@@H]1c1ccc(F)cc1 + CCN1CCN(Cc2ccc(Nc3ncc(F)c(-c4cc(F)c5nc(C)n(C(C)C)c5c4)n3)nc2)CC1 85.4 nM
